Biological target: Man(a1-3)[Man(a1-6)]Man(a1-6)[Man(a1-3)]Man
Test: glycan array binding signal (z-score within array); higher = stronger binding
Conditions: glycan notation: IUPAC condensed, linker removed
Only a selection was taken, and the strongest signals are over-represented in it overall.
PROPERTY_LABEL: glycan array binding signal (z-score)

binder="Gal 9 (Canis lupus) (protein) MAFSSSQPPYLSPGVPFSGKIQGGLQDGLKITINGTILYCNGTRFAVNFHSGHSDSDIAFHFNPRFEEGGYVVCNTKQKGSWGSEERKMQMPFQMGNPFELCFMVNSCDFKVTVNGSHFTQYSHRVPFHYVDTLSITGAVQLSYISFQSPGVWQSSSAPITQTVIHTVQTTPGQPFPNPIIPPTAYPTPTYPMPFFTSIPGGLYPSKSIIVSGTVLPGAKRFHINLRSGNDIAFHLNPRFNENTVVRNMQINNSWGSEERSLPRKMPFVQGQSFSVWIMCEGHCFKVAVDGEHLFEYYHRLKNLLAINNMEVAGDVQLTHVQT" property_label="glycan array binding signal (z-score)" result=-0.346
binder="CLECSF8 (Mus musculus), Q9Z2H6 (protein) HYFLRWTRGSVVKLSDYHTRVTCIREEPQPGATGGTWTCCPVSWRAFQSNCYFPLNDNQTWHESERNCSGMSSHLVTINTEAEQNFVTQLLDKRFSYFLGLADENVEGQWQWVDKTPFNPHTVFWEKGESNDFMEEDCVVLVHVHEKWVWNDFPCHFEVRRICKLPGITFNWKPSK" property_label="glycan array binding signal (z-score)" result=4.16
binder="SP8524D-bot-399-27-399 (Bacteroides ovatus) (protein) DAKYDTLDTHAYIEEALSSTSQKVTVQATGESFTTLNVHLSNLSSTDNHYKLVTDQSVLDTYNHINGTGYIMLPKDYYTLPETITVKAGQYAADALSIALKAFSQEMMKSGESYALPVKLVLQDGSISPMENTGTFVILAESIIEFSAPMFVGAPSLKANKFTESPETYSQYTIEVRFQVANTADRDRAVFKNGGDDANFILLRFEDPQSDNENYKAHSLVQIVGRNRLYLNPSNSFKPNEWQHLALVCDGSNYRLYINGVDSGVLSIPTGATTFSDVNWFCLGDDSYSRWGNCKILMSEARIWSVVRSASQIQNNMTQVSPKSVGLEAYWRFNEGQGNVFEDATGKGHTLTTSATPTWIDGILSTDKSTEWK" property_label="glycan array binding signal (z-score)" result=0.159
